Listing: Tmax of selected compounds
test: Tmax in Sprague-Dawley rat at 10 mg/kg, po measured […] by LC-MS/MS analysis; format: ADME, organism-based; details: in vivo
Provide only the numeric value, understood in h.

{"columns": ["Smiles notation", "Tmax (h)"],
 "data": [
  ["CCc1ccc(NC(=O)Nc2c[nH]c3ccccc23)cc1", 0.8],
  ["O=C(Nc1ccc(C(F)(F)F)cc1)Nc1c[nH]c2ccc(Cl)cc12", 4.2]
]}

Attention now shifts to the item below.
State the recorded Tmax for this entry: "O=C(Nc1ccc(C2CCC(F)(F)CC2)cc1)Nc1c[nH]c2ccc(Cl)cc12"
1

* * *

experiment: Oral bioavailability in Sprague-Dawley rat at 10 mg/kg measured […] by LC-MS/MS analysis; format: ADME, organism-based; conditions: in vivo
Reported bioavailability values follow for various compounds
Kindly answer with a numeric value in %, unit omitted.

{"columns": ["Smiles notation", "Data value"],
 "data": [
  ["O=C(Nc1ccc(C2CCC(F)(F)CC2)cc1)Nc1c[nH]c2ccc(Cl)cc12", 15],
  ["O=C(Nc1ccc(C(F)(F)F)cc1)Nc1c[nH]c2ccc(Cl)cc12", 4.6]
]}

Pending compound:
Requested field: bioavailability. Item: "CCc1ccc(NC(=O)Nc2c[nH]c3ccccc23)cc1"
0.6

Where do these numbers come from? They come from ChEMBL document CHEMBL6121057.
